Experiment: qHTS for inhibitors of binding or entry into cells for Marburg Virus
Conditions: Marburg virus pseudotyped entry inhibition, cell reporter; series mostly up to 37.8 µM
The whole screen tested about 300,000 compounds, of which about 5,400 (1.8%) were called active. About 28% were inconclusive and are not listed. Calls come from the whole dose curve; tested in HEK293 cells. What follows is part of a selection rich in actives, with near analogues and random picks from the rest.
Outcome codes: y for active, n for inactive

# COMPOUND, CAT
measured = [
    ("CCNC(=O)N1c2ccccc2Sc2ccccc21", "n"),
    ("CC(C)(C)c1ccc(C(=O)N2CCN(CCNC(=O)C(=O)Nc3ccc(F)cc3)CC2)cc1", "n"),
    ("CCOc1ccc(C(O)Cn2c(=N)n(CCN3CCCCC3)c3ccccc32)cc1 (configuration not stated)", "y"),
    ("COc1ccc(Cc2nc3ccc(C(=O)NCC4CCOCC4)cc3o2)cc1OC", "n"),
    ("COC(=O)C(C)Sc1nc2c(c(=O)n(C)c(=O)n2C)n1Cc1cccc(C)c1 (configuration not stated)", "n"),
    ("NS(=O)(=O)c1ccc(NC(=O)COC(=O)c2c3c(nc4ccccc24)/C(=C\\c2ccc4c(c2)OCO4)CCC3)cc1", "y"),
    ("Cc1nc2ccccc2c(C(=O)O)c1-c1ccccn1", "n"),
    ("CC(C)CO/N=C1\\C[C@@H](O)[C@@H](O)[C@@H]2[C@@H]3C(=O)N(C[C@@H]4CCCO4)C(=O)[C@@H]3CC[C@@H]12", "n"),
    ("C/C(Cl)=C\\Cn1c(Nc2cccc(C)c2)nc2c1c(=O)n(C)c(=O)n2C", "y"),
    ("COc1cccc([C@@H]2Oc3ccc(OC)cc3C(=O)[C@@H]2OC(=O)Nc2cc(OC)c(OC)c(OC)c2)c1", "n"),
    ("O=C(Nc1ccc(S(=O)(=O)Nc2ccccn2)cc1)c1ccccc1", "n"),
    ("CC1CN(C(=O)CCC(=O)NCCCN2CCC(Cc3ccccc3)CC2)c2cc(Cl)ccc2O1 (configuration not stated)", "y"),
    ("Cc1cc(S(=O)(=O)NCC(C)C)ccc1OCC(=O)NC1CC1", "n"),
    ("CCOc1ccc(CN2CCCN(C)CC2)cc1", "n"),
    ("CCNC(=O)CCc1nc(-c2ccc(C(C)(C)C)cc2)no1", "y"),
    ("CCOc1ccc(C(O)Cc2nc3ccccc3n2C)cc1 (configuration not stated)", "n"),
    ("CCN(CC(=O)Nc1cc(Cl)ccc1C)C(=O)CSCc1ccccc1", "n"),
    ("Oc1ccc(-n2nnnc2SCc2c(F)cccc2Cl)cc1", "n"),
    ("COc1ccccc1NC(=O)CCC(=O)N1CC(C)Oc2ccc(C)cc21 (configuration not stated)", "n"),
    ("O=C1CC(C(=O)O)NC(=S)N1 (configuration not stated)", "n"),
    ("CCOc1ccc(/C=N/NC(N)=S)cc1", "n"),
    ("COc1cc(-c2cc(C(=O)OCC(=O)Nc3ccc4c(c3)OCO4)c3ccccc3n2)cc(OC)c1OC", "n"),
]

----------
Assay: qHTS for inhibitors of binding or entry into cells for Marburg Virus
Conditions: Marburg virus pseudotyped entry inhibition, cell reporter; series mostly up to 37.8 µM
Hit rate of the full screen: of about 300,000 compounds, about 5,400 (1.8%) were called active. Inconclusive results (about 28%) are left out. The call rests on the fitted dose curve; tested in HEK293 cells. This is one part of a sample in which actives are shown more often than they occur.
Outcome codes: active, inactive

# COMPOUND, CAT
measured = [
    ("Cc1ccc(OCc2nnc(SC3CCc4ccccc4C3=O)n2C)cc1 (stereo unspecified)", "inactive"),
    ("Cc1cc([N+](=O)[O-])c(=O)[nH]c1C", "inactive"),
    ("CCCCn1c(N)c(N(Cc2ccccc2OC)C(=O)COc2cc(C)ccc2Cl)c(=O)[nH]c1=O", "inactive"),
    ("CCCC(O)(c1ccccc1)C(c1ccccc1)c1ccccn1 (stereo unspecified)", "inactive"),
    ("COc1ccc(C2(CNC(=O)Cc3ccc(OC)c(OC)c3)CCCC2)cc1", "inactive"),
    ("CCN(CC(=O)Nc1c(F)cccc1F)C(=O)Cc1cccs1", "inactive"),
    ("COc1cccc(CNS(=O)(=O)c2ccc3c(c2)CC(C)N3C(C)=O)c1 (stereo unspecified)", "inactive"),
    ("C/C(=C\\C(=O)c1ccc(Br)cc1)N1CCCCC1", "inactive"),
    ("Cc1cccc(C(CC(=O)NCC2(c3ccccc3)CCCC2)c2ccccc2)c1O (stereo unspecified)", "active"),
    ("CCOc1ccc(C2NC(=S)NC3=C2CCc2ccccc23)cc1 (stereo unspecified)", "active"),
    ("COc1ccc(C)cc1N(CC(=O)N1CCCC1)S(=O)(=O)c1ccccc1", "inactive"),
]

FYI, the data here is from PubChem BioAssay AID540276.
